system: Wnt activity (Sp5-Luc reporter, SW480 colon carcinoma cells); experiment: Screening assay for Wnt activity: Sp5-Luc reporter gene assay in SW480 colon carcinoma cells; assay type: cell-based; conditions: Homo sapiens; Sp5-Luc reporter, SW480 cells, overnight incubation
pEC50: −log10 of the molar value.
Kind request: treat 6 as inclusive, so pEC50 at 6 or higher is satisfied, anything lower is not satisfied.

Worked examples follow.
{"compound": "O=C(Nc1cncc(-c2cc3c(-c4cc5cnccc5[nH]4)n[nH]c3cn2)c1)C1CC1 [Compound 272]", "label_value": "not satisfied"}
{"compound": "CC(C)(C)CC(=O)Nc1cncc(-c2cc3c(-c4cc5cnccc5[nH]4)n[nH]c3cn2)c1 [Compound 268]", "label_value": "not satisfied"}
{"compound": "Fc1ccc(-c2nccc3[nH]c(-c4n[nH]c5cnc(-c6cncc(CN7CCC(F)(F)C7)c6)cc45)cc23)cc1 [Compound 54]", "label_value": "satisfied"}
{"compound": "CCC(=O)Nc1cncc(-c2cc3c(-c4cc5c(-c6cccc(F)c6)nccc5[nH]4)n[nH]c3cn2)c1 [Compound 1]", "label_value": "satisfied"}
{"compound": "CN1CCN(c2nccc3[nH]c(-c4n[nH]c5cnc(-c6cncnc6)cc45)cc23)CC1 [Compound 251]", "label_value": "not satisfied"}
{"compound": "O=C(Cc1ccccc1)Nc1cncc(-c2cc3c(-c4cc5c(N6CCCCC6)nccc5[nH]4)n[nH]c3cn2)c1 [Compound 178]", "label_value": "not satisfied"}

[in] Answer whether pEC50 of c1csc(-c2nccc3[nH]c(-c4n[nH]c5cnc(-c6cncc(CN7CCCCC7)c6)cc45)cc23)c1 [Compound 351] is greater than or equal to 6.
[out] not satisfied

[in] Answer whether pEC50 of Cc1ccncc1-c1cc2c(-c3cc4c(-c5ccc(F)cc5)nccc4[nH]3)n[nH]c2cn1 [Compound 33] is greater than or equal to 6.
[out] satisfied

[in] Answer whether pEC50 of CN1CCN(c2nccc3[nH]c(-c4n[nH]c5cnc(-c6cncc(NC(=O)C(C)(C)C)c6)cc45)cc23)CC1 [Compound 232] is greater than or equal to 6.
[out] not satisfied

[in] Answer whether pEC50 of c1ccc(-c2cc3c(-c4cc5c(-c6cccs6)nccc5[nH]4)n[nH]c3cn2)nc1 [Compound 364] is greater than or equal to 6.
[out] not satisfied

[in] Answer whether pEC50 of CC(C)CC(=O)Nc1cncc(-c2cc3c(-c4cc5c(-c6cccs6)nccc5[nH]4)n[nH]c3cn2)c1 [Compound 338] is greater than or equal to 6.
[out] satisfied

[in] Answer whether pEC50 of CC(C)C(=O)Nc1cncc(-c2cc3c(-c4cc5c(-c6ccncc6)nccc5[nH]4)n[nH]c3cn2)c1 [Compound 121] is greater than or equal to 6.
[out] not satisfied

[in] Answer whether pEC50 of Cn1cc(-c2cc3c(-c4cc5c(-c6cccnc6)nccc5[nH]4)n[nH]c3cn2)cn1 [Compound 556] is greater than or equal to 6.
[out] satisfied

[in] Answer whether pEC50 of CS(=O)(=O)NCc1cc(F)cc(-c2nccc3[nH]c(-c4n[nH]c5cnc(-c6ccccn6)cc45)cc23)c1 [Compound 504] is greater than or equal to 6.
[out] not satisfied

[in] Answer whether pEC50 of CN1CCN(c2nccc3[nH]c(-c4n[nH]c5cnc(-c6cncc(NC(=O)CC7CCNCC7)c6)cc45)cc23)CC1 [Compound 641] is greater than or equal to 6.
[out] not satisfied

[in] Answer whether pEC50 of CC(C)Nc1cncc(-c2cc3c(-c4cc5c(-c6ccc(F)cc6)nccc5[nH]4)n[nH]c3cn2)c1 [Compound 40] is greater than or equal to 6.
[out] satisfied

---

Measured EC50, listed per entry for reference.
test system: Wnt activity (Sp5-Luc reporter, SW480 colon carcinoma cells); test: Screening assay for Wnt activity: Sp5-Luc reporter gene assay in SW480 colon carcinoma cells; assay type: cell-based; conditions: Homo sapiens; Sp5-Luc reporter, SW480 cells, overnight incubation

Answered cases to consult:
{"compound": "CN1CCN(c2nccc3[nH]c(-c4n[nH]c5cnc(-c6cncc(NC(=O)C7CCCCC7)c6)cc45)cc23)CC1", "EC50": "3420 nM"}
{"compound": "CN1CCN(c2nccc3[nH]c(-c4n[nH]c5cnc(-c6cncc(CN7CCC(F)(F)C7)c6)cc45)cc23)CC1", "EC50": "1100 nM"}
{"compound": "c1cc2[nH]c(-c3n[nH]c4cnc(-c5cncc(CN6CCCC6)c5)cc34)cc2c(N2CCCCC2)n1", "EC50": "> 10000 nM"}
{"compound": "Fc1cccc(-c2nccc3[nH]c(-c4n[nH]c5cnc(-c6cccnc6)cc45)cc23)c1", "EC50": "500 nM"}
{"compound": "O=C(Nc1cncc(-c2cc3c(-c4cc5cnccc5[nH]4)n[nH]c3cn2)c1)C1CCCCC1", "EC50": "1620 nM"}
{"compound": "CCC(=O)Nc1cncc(-c2cc3c(-c4cc5c(N6CCN(C)CC6)nccc5[nH]4)n[nH]c3cn2)c1", "EC50": "> 10000 nM"}

Summary: Fc1ccccc1-c1nccc2[nH]c(-c3n[nH]c4cnc(-c5cncnc5)cc34)cc12 , Wnt activity (Sp5-Luc reporter, SW480 colon carcinoma cells), EC50 = 2140 nM

---

tested on: Wnt activity (Sp5-Luc reporter, SW480 colon carcinoma cells); assay: Screening assay for Wnt activity: Sp5-Luc reporter gene assay in SW480 colon carcinoma cells; format: cell-based; settings: Homo sapiens; Sp5-Luc reporter, SW480 cells, overnight incubation
property_measured: EC50 (nM)
Report only the number, with the unit nM understood.

Answered cases to consult:
{"compound": "CCCC(=O)Nc1cncc(-c2cc3c(-c4cc5c(-c6ccoc6)nccc5[nH]4)n[nH]c3cn2)c1", "tgt": "Wnt activity (Sp5-Luc reporter, SW480 colon carcinoma cells)", "property_measured": "EC50", "test_value": 1100}
{"compound": "Nc1cncc(-c2cc3c(-c4cc5c(-c6ccccc6F)nccc5[nH]4)n[nH]c3cn2)c1", "tgt": "Wnt activity (Sp5-Luc reporter, SW480 colon carcinoma cells)", "property_measured": "EC50", "test_value": 224}
{"compound": "c1cncc(-c2cc3c(-c4cc5cnccc5[nH]4)n[nH]c3cn2)c1", "tgt": "Wnt activity (Sp5-Luc reporter, SW480 colon carcinoma cells)", "property_measured": "EC50", "test_value": 133}

EC50 recorded for this compound, CC(C)CC(=O)Nc1cncc(-c2cc3c(-c4cc5c(N6CCCCC6)nccc5[nH]4)n[nH]c3cn2)c1 , is 1250

EC50 recorded for this compound, c1cc2[nH]c(-c3n[nH]c4cnc(-c5cncc(OC6CCCCC6)c5)cc34)cc2c(N2CCCCC2)n1 , is 1440

EC50 recorded for this compound, CN(C)c1cncc(-c2cc3c(-c4cc5c(-c6cccs6)nccc5[nH]4)n[nH]c3cn2)c1 , is 1490

---

test system: Wnt activity (Sp5-Luc reporter, SW480 colon carcinoma cells); experiment: Screening assay for Wnt activity: Sp5-Luc reporter gene assay in SW480 colon carcinoma cells; type: cell-based; conditions: Homo sapiens; Sp5-Luc reporter, SW480 cells, overnight incubation
Measured pEC50, listed per entry for reference.
pEC50 here: minus log base 10 of the concentration, concentration in moles per litre.

Answered cases to consult:
{"compound": "CN(C)Cc1cncc(-c2cc3c(-c4cc5c(-c6cccc(F)c6)nccc5[nH]4)n[nH]c3cn2)c1 [Compound 13]", "pEC50": 5.73}
{"compound": "CC(C)CC(=O)Nc1cncc(-c2cc3c(-c4cc5c(-c6ccc(F)cc6)nccc5[nH]4)n[nH]c3cn2)c1 [Compound 30]", "pEC50": 6.54}
{"compound": "O=C(Nc1cncc(-c2cc3c(-c4cc5cnccc5[nH]4)n[nH]c3cn2)c1)c1ccccc1 [Compound 263]", "pEC50": 6.24}

Switching to the query record.
pEC50 recorded for this compound, CN(C)Cc1cncc(-c2cc3c(-c4cc5c(N6CCN(C)CC6)nccc5[nH]4)n[nH]c3cn2)c1 [Compound 237] , is 5.41

---

test system: Wnt activity (Sp5-Luc reporter, SW480 colon carcinoma cells); experiment: Screening assay for Wnt activity: Sp5-Luc reporter gene assay in SW480 colon carcinoma cells; assay type: cell-based; conditions: Homo sapiens; Sp5-Luc reporter, SW480 cells, overnight incubation
Strictly below 3 µM in EC50: rule met. Otherwise: rule not met.

Worked examples follow.
{"molecule": "CS(=O)(=O)NCc1cc(F)cc(-c2nccc3[nH]c(-c4n[nH]c5cnc(-c6cncc(NC(=O)C7CCC7)c6)cc45)cc23)c1 [Compound 497]", "label_value": "rule not met"}
{"molecule": "CN1CCN(c2nccc3[nH]c(-c4n[nH]c5cnc(-c6cncc(NC(=O)c7ccccc7)c6)cc45)cc23)CC1 [Compound 235]", "label_value": "rule met"}
{"molecule": "CC(C)C(=O)Nc1cncc(-c2cc3c(-c4cc5c(-c6cc(F)cc(CNS(C)(=O)=O)c6)nccc5[nH]4)n[nH]c3cn2)c1 [Compound 485]", "label_value": "rule not met"}
{"molecule": "c1cc(-c2cc3c(-c4cc5c(-c6ccncc6)nccc5[nH]4)n[nH]c3cn2)ccn1 [Compound 130]", "label_value": "rule met"}
{"molecule": "Fc1cccc(-c2nccc3[nH]c(-c4n[nH]c5cnc(C6CCNCC6)cc45)cc23)c1 [Compound 505]", "label_value": "rule not met"}

[in] Is 3 µM strictly greater than the molecule's reported EC50? molecule: CC(C)(C)CC(=O)Nc1cncc(-c2cc3c(-c4cc5c(-c6ccccc6F)nccc5[nH]4)n[nH]c3cn2)c1 [Compound 72]
[out] rule met

[in] Is 3 µM strictly greater than the molecule's reported EC50? molecule: CC(C)CC(=O)Nc1cncc(-c2cc3c(-c4cc5c(-c6cc(F)cc(CNS(C)(=O)=O)c6)nccc5[nH]4)n[nH]c3cn2)c1 [Compound 478]
[out] rule not met

[in] Is 3 µM strictly greater than the molecule's reported EC50? molecule: CC(C)C(=O)Nc1cncc(-c2cc3c(-c4cc5cnccc5[nH]4)n[nH]c3cn2)c1 [Compound 261]
[out] rule met

[in] Is 3 µM strictly greater than the molecule's reported EC50? molecule: CS(=O)(=O)NCc1cc(F)cc(-c2nccc3[nH]c(-c4n[nH]c5cnc(-c6cncc(CNCC7CCCC7)c6)cc45)cc23)c1 [Compound 501]
[out] rule not met

[in] Is 3 µM strictly greater than the molecule's reported EC50? molecule: CS(=O)(=O)NCc1cc(F)cc(-c2nccc3[nH]c(-c4n[nH]c5cnc(-c6cncc(OCc7ccccc7)c6)cc45)cc23)c1 [Compound 774]
[out] rule met

[in] Is 3 µM strictly greater than the molecule's reported EC50? molecule: CN(C)CCOc1cncc(-c2cc3c(-c4cc5c(-c6ccc(F)cc6)nccc5[nH]4)n[nH]c3cn2)c1 [Compound 531]
[out] rule not met

[in] Is 3 µM strictly greater than the molecule's reported EC50? molecule: CC(C)CC(=O)Nc1cncc(-c2cc3c(-c4cc5c(-c6cccnc6)nccc5[nH]4)n[nH]c3cn2)c1 [Compound 86]
[out] rule not met

[in] Is 3 µM strictly greater than the molecule's reported EC50? molecule: O=C(Nc1cncc(-c2cc3c(-c4cc5c(N6CCCCC6)nccc5[nH]4)n[nH]c3cn2)c1)C1CCC1 [Compound 189]
[out] rule not met
